# maps each entry to its logD
# Assay comment: Distribution coefficient , log D of the compound
# Type: physicochemical
# Assay conditions: octanol/water
Property label: logD

>  <Compound>
Cc1ncccc1-c1cc(F)cc(N2C[C@H](N3CCN(c4ncccn4)CC3)CC2=O)c1

>  <Property label>
logD

>  <Meas value>
2.63

$$$$
>  <Compound>
Cc1ccccc1-c1cccc(N2CC(N3CCN(C(=O)c4nccs4)CC3)CC2=O)c1 (centres undefined)

>  <Property label>
logD

>  <Meas value>
3.31

$$$$
>  <Compound>
Cc1ncccc1-c1cc(F)cc(N2CC(N3CCN(c4ncccn4)CC3)CC2=O)c1 (centres undefined)

>  <Property label>
logD

>  <Meas value>
2.63

$$$$
>  <Compound>
Cc1ncccc1-c1cc(N2CC(N3CCN(C(=O)c4nccs4)CC3)CC2=O)ccc1F (centres undefined)

>  <Property label>
logD

>  <Meas value>
1.8

$$$$
>  <Compound>
Cc1ncccc1-c1cccc(N2CC(N3CCN(C(=O)c4nccs4)CC3)CC2=O)c1 (centres undefined)

>  <Property label>
logD

>  <Meas value>
1.85

$$$$
>  <Compound>
Cc1ncccc1-c1cc(F)cc(N2CC(N3CCN(C(=O)c4nccs4)CC3)CC2=O)c1 (centres undefined)

>  <Property label>
logD

>  <Meas value>
2.18

$$$$
>  <Compound>
Cc1cccnc1-c1cccc(N2CC(N3CCN(C(=O)c4nccs4)CC3)CC2=O)c1 (centres undefined)

>  <Property label>
logD

>  <Meas value>
1.85

$$$$
>  <Compound>
Cc1ncccc1-c1cc(F)cc(N2C[C@@H](N3CCN(c4ncccn4)CC3)CC2=O)c1

>  <Property label>
logD

>  <Meas value>
2.63

$$$$
>  <Compound>
O=C(c1nccs1)N1CCN(C2CC(=O)N(c3cccc(-c4ccccc4Cl)c3)C2)CC1 (centres undefined)

>  <Property label>
logD

>  <Meas value>
3.18

$$$$
